- Tested on: HL-60(TB) leukemia
- Assay remarks: NCI-60 one-dose screen, 48 h (100 = growth as untreated, 0 = no growth, -100 = all killed)
- Condition notes: 10 µM unless noted
- Protocol: Growth inhibition of the HL-60(TB) human tumor cell line is measured as a screen for anti-cancer activity. Cells are grown in 96 well plates and exposed to the test compound for 48 hours. Compounds are tested at a single concentration, which is 10^-5 M for most compounds. The reported endpoint is percent growth (GI% or GIPRCNT), where numbers from 0 - 100% represent growth inhibition, and numbers from -100% - 0 represent cell death. For example, a value of 40 represents 60% growth inhibition. […]
The panel holds about 83,000 compounds, 20% with a hit somewhere; the sample as a whole holds those more often.
The following compounds are shown together with reported growth values.

Compound: N#Cc1c(NC(=O)c2cccs2)[n+]([O-])c2cc(C(F)(F)F)ccc2[n+]1[O-]
growth, %: 89

Compound: O=C(O)CSc1ccc(NCc2oc(CO)cc(=O)c2O)cc1
growth, %: 69.3

Compound: COc1ccc(C(C)=O)cc1S(N)(=O)=O
growth, %: 74.7

Compound: O=C(Oc1ccc(CO[N+](=O)[O-])cc1)c1ccccc1
growth, %: -45.9

Compound: Nc1ccc(C2=NN(c3ccccc3)C(c3ccc(Cl)cc3)C2)cc1 (configuration not stated)
growth, %: 59.6

Compound: COc1ccc(-c2nc(SCC(C)C)nc(N/N=C(/C)c3ccc(OC)c(OC)c3)c2C#N)cc1
growth, %: 89.4

Compound: OCCN1CCN(CCCN2c3ccccc3Sc3ccc(C(F)(F)F)cc32)CC1
growth, %: 32.7

Compound: Cc1ccc(C(=Nc2ccccc2)N=P(c2ccccc2)(c2ccccc2)c2ccccc2)cc1
growth, %: -4.41

Compound: O=S(=O)(NCCNc1cc(-c2cn(-c3ccccc3)nc2-c2cccc(O)c2)ccn1)c1ccccc1
growth, %: 33.9

Compound: COc1cc(OC)cc(-c2n/c(=C\c3c(O)[nH]c4ccc(Cl)cc34)cc3c2=Nc2ccccc2-3)c1
growth, %: 90.2

Compound: CN(C)[C@@H]1C(=O)C(C(=O)NCc2nc3[nH]cnc(=S)c3[nH]2)=C(O)[C@@]2(O)C(=O)C3=C(O)c4c(O)cccc4[C@@](C)(O)[C@H]3C[C@@H]12
growth, %: 4.14

Compound: Cl.Fc1c[c-]c(-c2ccccn2)c(F)c1.[Pt].c1ccc([PH+](c2ccccc2)c2ccccc2[PH+](c2ccccc2)c2ccccc2)cc1
growth, %: -24.7

Compound: CCCCCc1nc2c(c3c1CCCC3)CCCC2
growth, %: -15.2

Compound: CCN1C(=O)N(CC)C2C1N=C(SCc1ccc(Cl)cc1)N2/N=C/C=C/c1ccccc1OC (configuration not stated)
growth, %: 37.9

Compound: O=C(OC[C@@H]1CO1)c1cccc2c(=O)c3ccccc3[nH]c12
growth, %: -51.4

Compound: Nc1c(C(=O)Nc2cccc3ccccc23)sc2nc3c(cc12)CCCC3
growth, %: -11.1

Compound: Cc1cccc(NC(=O)CSc2nc3ccc([N+](=O)[O-])cc3[nH]2)c1
growth, %: 86.1

Compound: CC(C)(C)n1cc(-c2ccnc(NCCCNS(=O)(=O)c3ccc(C(F)(F)F)cc3)c2)c(-c2cccc(O)c2)n1
growth, %: -24.5

Compound: Nc1nc2c(c(=O)[nH]1)C(c1ccc3c(c1)OCO3)C=C(C(=O)O)N2 (configuration not stated)
growth, %: 111

Compound: CNCCCn1c2c(c3ccc(Cl)cc3c1=O)C(=O)c1cc(OC)cnc1-2
growth, %: -26.3

Compound: CCN1Cc2nc3sc(C)c(C)c3c(=O)n2C=C1C
growth, %: 1.07

Compound: COC(=O)[C@]12CC[C@@H](C)[C@H](C)[C@@H]1C1=CC[C@@H]3[C@@]4(C)C(C=O)=C[C@@](C)(COC(C)=O)[C@@H]4C(=O)C[C@@]3(C)[C@]1(C)CC2
growth, %: 29.8

Compound: CCN1CCN(c2cc(C)c3cc(NC(=O)c4ccc(OC)c(OC)c4)ccc3n2)CC1
growth, %: 1.42

Compound: O=C(Nc1ccc(-n2ccc3c(NC(=O)c4ccccc4)ncnc32)cc1)c1cccc(C(F)(F)F)c1
growth, %: 43.9

Compound: C[C@]12CC[C@@H]3c4ccc(O)c([N+](=O)[O-])c4CC[C@H]3[C@@H]1CC[C@@H]2NS(=O)(=O)c1cccc(Br)c1
growth, %: -5.66

Compound: CN(C)c1ccc2nc3ccc(=[N+](C)C)c([N+](=O)[O-])c-3sc2c1
growth, %: 2.66

Compound: Clc1ccc(-c2nc(-c3cccs3)cn3ccnc23)cc1
growth, %: 98.8

Compound: N#Cc1cnc2ccc(NCc3cnc[nH]3)cc2c1Nc1ccc(F)c(Cl)c1
growth, %: 79.4

Compound: C=C(C)[C@@H]1CC[C@]2(C(=O)O)CC[C@]3(C)[C@H](CC[C@@H]4[C@@]5(C)C[C@@H](CC#Cc6ccccc6C)C(=O)C(C)(C)[C@@H]5CC[C@]43C)[C@@H]12
growth, %: -14.7

Compound: COc1ccc(Nc2ccnc(NCCNc3ccnc4cc(Cl)ccc34)n2)cc1
growth, %: 39

Compound: CN(C)CCCn1c2c(c3cnccc3c1=O)C(=O)c1ccccc1-2
growth, %: 2.29

Compound: CCOCCOCCOCCOCCOCCOCCOCCOCCOCCO (tested in a mixture with another compound)
growth, %: -54.9

Compound: Cn1cc2c(c1)-c1nc(Nc3ccccc3)ncc1CC2
growth, %: 97.3

Compound: COc1ccc(N/N=C/c2cn(-c3ccc(C(=O)O)cc3)nc2-c2cc3ccccc3oc2=O)cc1
growth, %: 8.19

Compound: O=C1CC(c2nc3ccccc3[nH]2)CN1C1CCCCC1 (configuration not stated)
growth, %: 101

Compound: CC1=C2CC/C(C)=C/CC[C@]3(C)O[C@H]3CC/C(C)=C/[C@H]2OC1
growth, %: 86.5

Compound: CCN1CCN(Cc2ccc(NC(=O)Nc3cccc(-n4ccc5c(NC(=O)c6ccccc6)nccc54)c3)cc2C(F)(F)F)CC1
growth, %: 112

Hello, the source for this data is PubChem BioAssay (NCI), in case you need it.
